Below, each of the molecules is paired with its reported pEC50 value.
- Tested on: circBRIP1 in HCT116 cells
- Assay Remarks: DHX9 circBRIP1 cellular target engagement SYBR Green assay (qPCR)
- Format: cell-based
- Assay Context: Homo sapiens, HCT-116, circBRIP1, HCT116 cells; SyBr assay (marked ^+); read-out: DHX9 Cellular Target Engagement EC50
pEC50: −log10 of the molar value.
Readout Type: pEC50

• CS(=O)(=O)Nc1cc(Cl)cc(NC(=O)c2cc3ccccn3c2)c1 = 5.46
• CS(=O)(=O)Nc1cc(Cl)cc(NC(=O)c2cc3ncccc3s2)c1 = 5.18
• CCS(=O)(=O)Nc1cc(Cl)cc(NC(=O)c2cc(C)n(-c3ccc(N4CCOCC4)cn3)c2)c1 = 7.53
• COc1ccc(-n2cc(C(=O)Nc3cc(Cl)cc(NS(C)(=O)=O)c3)cn2)nc1 = 5.63
• CC(C)(O)COc1cccnc1-n1cc(C(=O)Nc2cc(Cl)cc(NS(C)(=O)=O)c2)cn1 = 6.12
• CS(=O)(=O)Nc1cc(Cl)cc(NC(=O)c2cc3c(=O)[nH]ccn3c2)c1 = 5.62

* * *

- Test system: circBRIP1 in HCT116 cells
- Assay Remarks: DHX9 circBRIP1 cellular target engagement SYBR Green assay (qPCR)
- Type: cell-based
- Assay Context: Homo sapiens, HCT-116, circBRIP1, HCT116 cells; SyBr assay (marked ^+); read-out: DHX9 Cellular Target Engagement EC50
pEC50: −log10 of the molar value.
Readout Type: pEC50

* CCS(=O)(=O)Nc1cc(Cl)cc(NC(=O)c2cc(-c3ncc(F)cn3)cs2)c1 | 6.72
* Cc1sc(C(=O)Nc2cc(Cl)cc(NS(C)(=O)=O)c2)cc1-c1c(F)cccc1OCc1ccccc1 | 6.64
* CS(=O)(=O)Nc1cc(Cl)cc(NC(=O)c2cnn(-c3ncccc3OCc3ncc[nH]3)c2)c1 | 5.75
* Cc1ccc2sc(C(=O)Nc3cc(Cl)cc(NS(C)(=O)=O)c3)cc2c1 | 5.43
* COc1cccc2sc(C(=O)Nc3cc(Cl)cc(NS(C)(=O)=O)c3)cc12 | 6.62
* CS(=O)(=O)Nc1cc(Cl)cc(NC(=O)c2cnn(-c3ccccc3Oc3cccnc3)c2)c1 | 5.45
* CS(=O)(=O)Nc1cc(Cl)cc(NC(=O)c2cc(-c3ncccc3Oc3cccnc3)cs2)c1 | 6.46
* CS(=O)(=O)Nc1cc(Cl)cc(NC(=O)c2cnn(-c3ccc(N4CCn5ccnc5C4)cn3)c2)c1 | 5.44
* COC(=O)[C@@H]1CCCN1c1csc(C(=O)Nc2cc(Cl)cc(NS(C)(=O)=O)c2)c1 | 5.30
* CS(=O)(=O)Nc1cc(Cl)cc(NC(=O)c2cc3cnccn3c2)c1 | 5.31
* CCn1cc(C(=O)Nc2cc(Cl)cc(NS(C)(=O)=O)c2)cc1-c1ccc(N2CCOCC2)cn1 | 7.01
* CN(C)S(=O)(=O)c1ccc(-n2cc(C(=O)Nc3cc(Cl)cc(NS(C)(=O)=O)c3)cn2)nc1 | 5.88
* Cc1cc(C(=O)Nc2cc(Cl)cc(NS(C)(=O)=O)c2)cn1-c1ccc(N2CCS(=O)(=O)CC2)cn1 | 6.30

* * *

Below, each of the molecules is paired with its reported IC50 value.
- Tested on: LS411N cells
- Assay Remarks: DHX9 cellular proliferation assay (CellTiter-Glo), LS411N (CRC-MSI)
- Format: cell-based
- Assay Context: Homo sapiens, LS-411N, LS411N, CRC-MSI-H; performed at Pharmaron; read-out: LS411N (CRC-MSI-H) Antiproliferative IC50
Readout Type: IC50 (nM)

• CC(C)(C)Oc1cnc(-c2csc(C(=O)Nc3cc(Cl)cc(NS(C)(=O)=O)c3)c2)nc1 = 83
• Cc1sc(C(=O)Nc2cc(Cl)cc(NS(C)(=O)=O)c2)cc1-c1ncc(F)cc1F = 154
• Cc1cc(C#N)cnc1-c1cc(C(=O)Nc2cc(Cl)cc(NS(C)(=O)=O)c2)sc1C = 303
• CCS(=O)(=O)Nc1cc(Cl)cc(NC(=O)c2cc(-c3ncc(F)cc3OC)c(C)s2)c1 = 71.5
• CCS(=O)(=O)Nc1cc(Cl)cc(NC(=O)c2cc(-c3ccc(F)cn3)c(C)s2)c1 = 71.6
• COc1cc(F)cnc1-c1cc(C(=O)Nc2cc(Cl)cc(NS(C)(=O)=O)c2)sc1C = 82
• CCS(=O)(=O)Nc1cc(Cl)cc(NC(=O)c2cc(-c3ncc(OC)cc3F)c(C)s2)c1 = 235
• Cc1sc(C(=O)Nc2cc(Cl)cc(NS(C)(=O)=O)c2)cc1-c1ccc(C#N)cn1 = 140
